Test system: EKVX NSCLC
Assay: NCI tumour cell line growth inhibition, 48 h
Experimental readout: TGI

Recorded TGI, per entry:
[
  {
    "Molecule": "C/C1=C\\CC[C@@]2(C)O[C@@H]2C[C@@H]2[C@H](C/C(C)=C/CC1)OC(=O)[C@]21CO1",
    "Experimental readout": "TGI",
    "Reported measurement": "> 100 µM"
  },
  {
    "Molecule": "CCCc1nn(C)c(CCC(=O)N(Cc2ccccc2)Cc2ccccc2)c1CC",
    "Experimental readout": "TGI",
    "Reported measurement": "> 100 µM"
  },
  {
    "Molecule": "CC(/C=C1\\CCC(CN(C)C)C1=O)c1cccc(Br)c1 (stereo unspecified)",
    "Experimental readout": "TGI",
    "Reported measurement": "42 µM"
  },
  {
    "Molecule": "C#Cc1cccc(Nc2ncnc3ccc(-c4cnc(N)nc4)cc23)c1",
    "Experimental readout": "TGI",
    "Reported measurement": "2.93 µM"
  },
  {
    "Molecule": "Cc1ccc(C(CCO)CCO)nc1",
    "Experimental readout": "TGI",
    "Reported measurement": "> 100 µM"
  }
]

get_value(item= CCOC(=O)C1=C(C)C2C3C(=O)OC(=O)C3C1(C)C1C(=O)OC(=O)C21 (stereo unspecified) , readout=TGI) returns > 100 µM

---

TGI overview
System: MDA-MB-435
Assay: NCI tumour cell line growth inhibition, 48 h
Numbers only; they are read as µM.

[
  {
    "Molecule": "C=C1C(=O)O[C@H]2[C@H]1CC/C(CNC(=O)C(C)c1ccc(CC(C)C)cc1)=C\\CC[C@@]1(C)O[C@@H]21 (some centres undefined)",
    "TGI [µM]": 3.76
  }
]

# ---- query molecule ----
get_value(item= `O=c1oc2ccc(I)cc2c(=O)n1-c1ccc(I)cc1F` , readout=TGI) returns 5.6

---

System: MDA-MB-231 breast
Assay: NCI tumour cell line growth inhibition, 48 h
TGI overview
Numbers only; they are read as µM.

Recorded TGI, per entry:
[
  {
    "Compound": "C[N+]1(C)C/C(=C\\C=C\\c2ccccc2)C(=O)/C(=C/C=C/c2ccccc2)C1",
    "Experimental system": "MDA-MB-231 breast",
    "TGI, µM": 36.1
  },
  {
    "Compound": "CC(=O)O[C@H]1C(=O)[C@@]2(C)[C@H]([C@H](OC(=O)c3ccccc3)[C@]3(O)C[C@H](OC(=O)[C@H](O)[C@@H](NC(=O)OC(C)(C)C)c4ccco4)C(C)=C1C3(C)C)[C@]1(OC(C)=O)CO[C@@H]1C[C@@H]2O",
    "Experimental system": "MDA-MB-231 breast",
    "TGI, µM": 14.7
  },
  {
    "Compound": "CN(CCCCCCCCNc1ccnc2ccccc12)Cc1ccc(-c2ccc(-c3ccc(C#N)cc3)s2)cc1",
    "Experimental system": "MDA-MB-231 breast",
    "TGI, µM": 3.06
  },
  {
    "Compound": "O=C1NC(NNc2ccccc2)=N/C1=C\\c1ccco1",
    "Experimental system": "MDA-MB-231 breast",
    "TGI, µM": 54.7
  },
  {
    "Compound": "CC(=O)OC1(C)CC(C)C(=O)C(C(O)CC2CC(=O)NC(=O)C2)C1 (centres undefined)",
    "Experimental system": "MDA-MB-231 breast",
    "TGI, µM": 0.196
  }
]

# ---- query compound ----
get_value(item= `CC(C)c1ccc(C(c2c(O)c3ccccc3oc2=O)c2c(O)c3ccccc3oc2=O)cc1` , readout=TGI) returns 45.6

---

Test system: OVCAR-3 ovarian
Test: NCI tumour cell line growth inhibition, 48 h
Entries get a class label from measured TGI. See ranges: lowest = under 10 µM, middle = from 10 µM up to 40 µM, highest = 40 µM and over

// below: answered compounds
[
  {
    "Compound": "O=C(/C=C/c1ccc(Cl)cc1)c1nc2ccccc2[nH]1",
    "Answer label": "highest"
  },
  {
    "Compound": "O=C(N/N=C\\c1ccc(Cl)cc1)Nc1cccc2ccccc12",
    "Answer label": "lowest"
  },
  {
    "Compound": "O=C1NC(NNc2ccccc2)=N/C1=C\\c1ccco1",
    "Answer label": "middle"
  },
  {
    "Compound": "Cc1cnc(-c2ccc(-c3ccc(NC(=O)Nc4cccc(C(F)(F)F)c4)cc3F)c3c2C(=O)NC3)[nH]1",
    "Answer label": "middle"
  },
  {
    "Compound": "CCCn1cc(/C=N\\N=C2\\C(=O)Nc3ccc(C)cc32)c2ccccc21",
    "Answer label": "lowest"
  }
]

Where would `CCn1c(=O)c2c3ccc(O)cc3[nH]c2c2ccc(O)cc21` land among the classes by reported TGI? highest

Where would `C#Cc1cccc(Nc2ncnc3ccc(-c4cnc(N)nc4)cc23)c1` land among the classes by reported TGI? middle

Where would `CCc1nc(N)nc(N)c1-c1ccc(N(C)Cc2ccccc2)c([N+](=O)[O-])c1` land among the classes by reported TGI? middle

---

Tested on: OVCAR-3 ovarian
Test: NCI tumour cell line growth inhibition, 48 h
Experimental readout: TGI (µM)
Numbers only; they are read as µM.

[
  {
    "Compound": "CN(C)c1ccc2cc3c(cc2c1)Oc1ccccc1N3.[Cl][Zn][Cl]",
    "TGI [µM]": 3
  },
  {
    "Compound": "O=[N+]([O-])c1cc(C(F)(F)F)cc2n[se]nc12",
    "TGI [µM]": 3.33
  },
  {
    "Compound": "COc1ccc2c(c1)C(=O)/C(=C/c1cccc(OCC(=O)c3ccc([N+](=O)[O-])cc3)c1)CO2",
    "TGI [µM]": 3.72
  },
  {
    "Compound": "C[n+]1ccc2/c(=C\\C#N)c3ccccc3n21",
    "TGI [µM]": 34.2
  },
  {
    "Compound": "CCCCCCc1cc2cc(-c3cn4ccccc4n3)c(=O)oc2cc1O",
    "TGI [µM]": 15.7
  }
]

get_value(item= `Cn1c2ccccc2c2c(=O)n(CCCC(=O)NCCc3cnc[nH]3)c3c(-c4ccccc4)nnn3c21` , readout=TGI) returns 16.3

---

Test system: OVCAR-8 ovarian
Test: NCI tumour cell line growth inhibition, 48 h
Experimental readout: TGI

[
  {
    "Compound": "CC(=O)OC(C)(C)C[N+](=O)[O-]",
    "Experimental system": "OVCAR-8 ovarian",
    "TGI": "> 100 µM"
  },
  {
    "Compound": "C=C1CCCC2OC(OC)CCC12 (stereo unspecified)",
    "Experimental system": "OVCAR-8 ovarian",
    "TGI": "> 100 µM"
  },
  {
    "Compound": "CC(C)C1CCC(=O)CC1CCCCC1CC(=O)CC1O[Si](C)(C)C(C)(C)C (stereo unspecified)",
    "Experimental system": "OVCAR-8 ovarian",
    "TGI": "13 µM"
  },
  {
    "Compound": "COc1cc2cnc3c4cc(O)ccc4ccc3c2cc1OC",
    "Experimental system": "OVCAR-8 ovarian",
    "TGI": "> 100 µM"
  },
  {
    "Compound": "COc1ccc2c(c1)C(=O)/C(=C/c1cccc(OCC(=O)c3ccc([N+](=O)[O-])cc3)c1)CO2",
    "Experimental system": "OVCAR-8 ovarian",
    "TGI": "9.66 µM"
  },
  {
    "Compound": "Clc1ccc2c(c1)CC1C[N+]3=C(CCCCC3)C1=C2 (stereo unspecified)",
    "Experimental system": "OVCAR-8 ovarian",
    "TGI": "> 100 µM"
  }
]

Field TGI (system: OVCAR-8 ovarian) for entry Cc1ccc2nc(-c3nccn3C)cc(C(=O)NC(C)CN(C)C)c2c1 (stereo unspecified) = > 100 µM

Field TGI (system: OVCAR-8 ovarian) for entry `CC(=O)O[C@H]1C(=O)[C@@]2(C)[C@H]([C@H](OC(=O)c3ccccc3)[C@]3(O)C[C@H](OC(=O)[C@H](O)[C@@H](NC(=O)OC(C)(C)C)c4ccco4)C(C)=C1C3(C)C)[C@]1(OC(C)=O)CO[C@@H]1C[C@@H]2O` = > 50 µM

Field TGI (system: OVCAR-8 ovarian) for entry `Cc1ccc(/C=C2\CCS(=O)(=O)c3ccccc3C2=O)cc1` = 30.7 µM

Field TGI (system: OVCAR-8 ovarian) for entry CC(Oc1ccc2c(=O)cc(-c3ccccc3)oc2c1)C(=O)O (stereo unspecified) = > 100 µM

Field TGI (system: OVCAR-8 ovarian) for entry `O=C1C(c2ccccc2)=[N+]([O-])c2cc([N+](=O)[O-])ccc21` = 32.6 µM
